Molecular target: GCK-GKRP interaction (recombinant human GST-GCK and FLAG-GKRP) (Homo sapiens, UniProt P35557+Q14397)
Sequence (P35557 1-465): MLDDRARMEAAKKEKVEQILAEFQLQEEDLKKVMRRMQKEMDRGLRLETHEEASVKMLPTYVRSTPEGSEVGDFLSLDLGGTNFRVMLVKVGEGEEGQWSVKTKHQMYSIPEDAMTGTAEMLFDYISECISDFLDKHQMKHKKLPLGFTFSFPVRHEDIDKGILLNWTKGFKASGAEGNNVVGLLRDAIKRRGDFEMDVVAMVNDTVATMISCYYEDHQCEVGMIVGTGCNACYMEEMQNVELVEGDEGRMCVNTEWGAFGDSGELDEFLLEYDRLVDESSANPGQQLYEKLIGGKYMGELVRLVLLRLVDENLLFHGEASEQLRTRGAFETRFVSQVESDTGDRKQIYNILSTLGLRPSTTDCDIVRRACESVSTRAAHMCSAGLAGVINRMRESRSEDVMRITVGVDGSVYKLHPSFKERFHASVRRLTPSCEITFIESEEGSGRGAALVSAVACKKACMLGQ
Sequence (Q14397 1-625): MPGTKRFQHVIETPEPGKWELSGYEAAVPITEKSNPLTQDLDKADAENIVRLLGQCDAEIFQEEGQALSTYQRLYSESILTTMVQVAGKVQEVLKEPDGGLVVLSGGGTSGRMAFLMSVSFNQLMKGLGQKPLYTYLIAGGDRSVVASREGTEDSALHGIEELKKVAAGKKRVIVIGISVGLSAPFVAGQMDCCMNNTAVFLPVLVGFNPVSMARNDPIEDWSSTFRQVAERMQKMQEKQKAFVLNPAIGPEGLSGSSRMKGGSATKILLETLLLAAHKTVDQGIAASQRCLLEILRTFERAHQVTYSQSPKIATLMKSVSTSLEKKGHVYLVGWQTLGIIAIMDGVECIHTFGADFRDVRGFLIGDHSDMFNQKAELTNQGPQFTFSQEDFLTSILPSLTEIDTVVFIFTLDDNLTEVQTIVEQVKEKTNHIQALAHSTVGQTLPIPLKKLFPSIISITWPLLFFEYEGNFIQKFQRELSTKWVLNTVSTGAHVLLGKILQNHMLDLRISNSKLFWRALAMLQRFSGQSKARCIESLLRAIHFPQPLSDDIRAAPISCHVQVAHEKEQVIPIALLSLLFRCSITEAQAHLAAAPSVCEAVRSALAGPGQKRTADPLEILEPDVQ
Experiment: HTRF assay of the GCK-GKRP protein-protein interaction
Conditions: 5 nM GCK, 5 nM GKRP, 1536-well, mean ± SD; read-out: EC50 (enhancement of HTRF signal)
QUANTITY KIND: pEC50
Give only the number. pEC50 is defined as minus log10 of concentration in molar units.

Prompt line: For the compound O=P(O)(O)OC[C@@H](O)[C@@H](O)[C@H](O)[C@@H](O)CO [S6P, sorbitol 6-phosphate] , what pEC50 is on record?
Response line: 6.40

====

molecular target: GCK enzymatic reaction inhibited by GKRP (recombinant human GCK and GKRP) (Homo sapiens, UniProt P35557+Q14397); construct: made in house; test: Bioluminescence assay (ADP-Glo) of the GCK enzyme reaction with GKRP; assay type: biochemical; settings: 15 nM GCK, 15 nM GKRP, 75 minutes, mean ± SD; read-out: IC50 (decrease in luminescence)
QUANTITY KIND: IC50 (nM)
Field format: number, assumed nM, no unit text.

Prompt line: For the molecule O=P(O)(O)OC[C@@H](O)[C@@H](O)[C@H](O)[C@@H](O)CO [S6P, sorbitol 6-phosphate] , what IC50 is on record?
Response line: 5
